assay: HepG2 liver cancer cell viability effects, profiling panel, resazurin fluorescence, 24 h, PK04 Diversity Set (AID 1172); details: higher = more signal; further: test concentration not given here
Would you mind labelling by z-score? At or over -0.2 is satisfied, under is not satisfied.

Below, 3 compounds whose answers are already recorded.
1. O=C1c2ccccc2[C@](Cc2ccccc2I)(C(=O)NCCN2CCOCC2)[C@H](c2ccc(CO)cc2)N1Cc1ccccc1C(F)(F)F = not satisfied
2. [N-]=[N+]=NCc1ccccc1C[C@@]1(C(N)=O)N=C(c2ccc(OCCCO)cc2)O[C@@H]1c1ccccc1N=[N+]=[N-] = satisfied
3. CN(C)CCCCCCNC(=O)[C@@H]1C[C@@H]2C(=O)N[C@@H](CCCC[N+](C)(C)C)C(=O)N2[C@@H]1c1cccc(OCCO)c1 = satisfied

z-score >= -0.2 for CC(C)(C)OC(=O)CC[C@@]1(C(=O)N2CCOCC2)N=C(c2ccc(OCCCO)cc2)O[C@@H]1c1ccccc1CN=[N+]=[N-] ? not satisfied

CC1(C)OB(/C=C\CC(OC(=O)c2ccncc2)c2ccccc2)OC1(C)C (stereo not drawn) , same question. satisfied
